Hello, the source for this data is PubChem BioAssay (NCI), in case you need it.

# Tested on: U251 CNS
# EXPERIMENT_SUMMARY: NCI tumour cell line growth inhibition, 48 h
TEST_READOUT: TGI

COMPOUND: O=c1[nH]nc(NCc2ccccc2)c2nnn(Cc3ccccc3)c12
TGI: > 100 µM
--
COMPOUND: O=C(Nc1ccc(Cc2ccccc2)cc1)Nc1nn(C(=O)Nc2ccc(Cc3ccccc3)cc2)c2ccccc12
TGI: > 100 µM

Identify the reported TGI for the following entry. "COc1cc(C)c(/C=C2/N=C(c3ccccc3)OC2=O)c([N+](=O)[O-])c1OC"
> 100 µM

Identify the reported TGI for the following entry. CCCCN1CCCC[C@@H]1C(=O)N[C@H](C(=O)N(C)[C@H](C[C@@H](OC(C)=O)c1nc(C(=O)NC2CCC(C(=O)OC)CC2)cs1)C(C)C)C(C)C (some centres undefined)
> 25 µM

###

# Test system: SR leukemia
# EXPERIMENT_SUMMARY: NCI tumour cell line growth inhibition, 48 h; in the data active = GI50 below about 0.43 µM; inactive = the rest
Please state which outcome applies, choosing from active, inactive

Solved cases below.
COMPOUND: CC1CCN(Cc2ccc(NC(=O)c3cc4ccc5cccnc5c4[nH]3)cc2)CC1
QUALITATIVE_LABEL: inactive
//
COMPOUND: CSC(=NC#N)S/C=C/C(=O)c1ccccc1
QUALITATIVE_LABEL: inactive
//
COMPOUND: O=S(=O)(CCN1CCOCC1)Nc1cc(-c2ccc3ncnc(Nc4ccc(F)c(Cl)c4)c3c2)cnc1Cl
QUALITATIVE_LABEL: inactive
//
COMPOUND: CC1(C)[C@@H]2C[C@H]1[C@@H](Cc1cccc(C[C@H]3c4cc(-c5ccccn5)ncc4[C@H]4C[C@@H]3C4(C)C)c1)c1cc(-c3ccccn3)ncc12
QUALITATIVE_LABEL: inactive
//
COMPOUND: COc1ccc(C=Nc2c(C(=O)Nc3cccc(Cl)c3C)sc3nc(C)c(C(=O)/C=C/c4ccc(OC)cc4)cc23)cc1
QUALITATIVE_LABEL: active

Hi, do you know how "COc1cc(OC)cc(-c2ccc(-c3ccc(C(=N)N)cn3)o2)c1" came out in this test?
inactive

Hi, do you know how CN(CCCCCl)P(=O)(OCCS(=O)(=O)CC(NC(=O)CCC(N)C(=O)O)C(=O)NC(C(=O)O)c1ccccc1)OCC1OC(n2ccc(N)nc2=O)C(O)C1O (stereo not drawn) came out in this test?
inactive

Hi, do you know how "CC1=CC(C)=NN=C(N)N1S(=O)(=O)c1cc(C)c(Cl)cc1SCc1ccccc1" came out in this test?
inactive

###

# System: UO-31 renal
# EXPERIMENT_SUMMARY: NCI tumour cell line growth inhibition, 48 h
Let's look at some compounds and their measured GI50.

SMILES_NOTATION: CC(=O)/C(=C/c1ccccc1)C(=O)CC(C)C
GI50: 10500 nM

SMILES_NOTATION: O=S(=O)(CCN1CCOCC1)Nc1cc(-c2ccc3ncnc(Nc4ccc(F)c(Cl)c4)c3c2)cnc1Cl
GI50: 267 nM

SMILES_NOTATION: Oc1ccc(Nc2ccc3ccccc3c2)cc1
GI50: 1600 nM

SMILES_NOTATION: O=C(Nc1ccc(Cc2ccccc2)cc1)Nc1nn(C(=O)Nc2ccc(Cc3ccccc3)cc2)c2ccccc12
GI50: > 100000 nM

Kindly review the next compound as well.
Please report GI50 with UO-31 renal for item "O=c1oc2ccc(I)cc2c(=O)n1-c1ccc(F)cc1F" .
1480 nM

###

# Test system: BT-549 breast
# EXPERIMENT_SUMMARY: NCI tumour cell line growth inhibition, 48 h
Let's look at some compounds and their measured TGI.

SMILES_NOTATION: O=c1c2ccccc2[nH]n1Cc1ccccc1
TEST_READOUT: TGI
RESULT: > 100 µM
//
SMILES_NOTATION: CCCNC(=S)N/N=C(\C)c1ccc(S(=O)(=O)N(C)c2ccccc2)cc1
TEST_READOUT: TGI
RESULT: > 100 µM

Identify the reported TGI for the following entry. "COc1cc(C)c(/C=C2/N=C(c3ccccc3)OC2=O)c([N+](=O)[O-])c1OC"
> 100 µM

Identify the reported TGI for the following entry. "c1cc(-c2ccc(-c3ccc(-c4ccc(-c5ccncc5)o4)cc3)o2)ccn1"
30.7 µM

Identify the reported TGI for the following entry. "CC1=C2CC(C)(C)/C=C\C(=O)/C(C)=C\C3=C[C@H](C)C[C@]3(O2)C1=O"
1.5 µM

Identify the reported TGI for the following entry. "Nc1ccc2[nH]c(-c3cccc(C(F)(F)F)c3)cc(=O)c2c1"
> 100 µM

Identify the reported TGI for the following entry. "CC(=O)Nc1ccc2nc(-c3ccccn3)c(-c3ccccn3)nc2c1"
> 100 µM

Identify the reported TGI for the following entry. "CC1(C)[C@@H]2C[C@H]1[C@@H](Cc1cccc(C[C@H]3c4cc(-c5ccccn5)ncc4[C@H]4C[C@@H]3C4(C)C)c1)c1cc(-c3ccccn3)ncc12"
> 100 µM

Identify the reported TGI for the following entry. "CCCCCCCCCCCCCCCC1=NCCN1"
29.7 µM

Identify the reported TGI for the following entry. "CCOC(=O)c1cc(-n2nnc3ccccc32)cn1C"
> 10 µM

###

# Tested on: TK-10 renal
# EXPERIMENT_SUMMARY: NCI tumour cell line growth inhibition, 48 h
TEST_READOUT: TGI (µM)
API: value field is a number in µM; no unit string.

A selection of reference data follows.
SMILES_NOTATION: C=C1C(=O)O[C@H]2[C@H]1CC/C(COC(=O)NCc1c[nH]c3ccccc13)=C\CC[C@@]1(C)O[C@@H]21
TGI (µM): 5.65
--
SMILES_NOTATION: O=C1/C(=C/c2ccccc2)CN(C(=O)C(Cl)Cl)C/C1=C\c1ccccc1
TGI (µM): 3.22
--
SMILES_NOTATION: COc1cc2c3cc1Oc1c(OC)c(OC)cc4c1C(=NCC4)Cc1ccc(cc1)Oc1cc(ccc1O)C[C@H]3N(C)CC2
TGI (µM): 43.1
--
SMILES_NOTATION: Oc1ccc(O)c(-c2cn3c(n2)SCC3)c1
TGI (µM): 37.3

Kindly review the next compound as well.
Identify the reported TGI for the following entry. "COCCN(CCNC(=O)c1cccc2c(N)c3cccc(C)c3nc12)CCOC"
16.6

###

Let's look at some compounds and their measured TGI.
# Tested on: IGROV1 ovarian
# EXPERIMENT_SUMMARY: NCI tumour cell line growth inhibition, 48 h

COMPOUND: CCOC(=O)C1SC(=Nc2ccc(OC)c(OC)c2)N=C1C (configuration not stated)
TGI: > 100 µM
--
COMPOUND: CC12C3C4C1C1C2C3C41CO (configuration not stated)
TGI: > 100 µM
--
COMPOUND: CSC1(C)C(=O)Nc2c(OCc3ccccc3)cc([N+](=O)[O-])cc21 (configuration not stated)
TGI: > 100 µM
--
COMPOUND: O=P1(c2ccccc2)c2ccccc2-c2ccccc21
TGI: > 100 µM
--
COMPOUND: CCCCOC(=O)c1ccc(N)cc1
TGI: > 100 µM

Identify the reported TGI for the following entry. COC(=O)C1CCC(=S)N1C(=O)OCc1ccccc1 (configuration not stated)
> 100 µM

Identify the reported TGI for the following entry. O=C(CC1(O)C(=O)N(Cc2ccccc2)c2ccc(Cl)cc21)c1ccc(C(=O)NCC2CCC3(CC2)OOC2(CCCCC2)OO3)cc1 (configuration not stated)
0.444 µM

Identify the reported TGI for the following entry. "C=C1C(=O)O[C@H]2[C@H]1CC/C(COC(=O)NCc1c[nH]c3ccccc13)=C\CC[C@@]1(C)O[C@@H]21"
11.6 µM

Identify the reported TGI for the following entry. "O=C(O)[C@H](Cc1c[nH]c2ccccc12)N1C(=O)c2ccccc2C1=O"
> 100 µM

Identify the reported TGI for the following entry. "CCOC(=O)Cn1c2ccccc2c(=O)c2cc(C)c(C)c(C#N)c21"
> 100 µM

Identify the reported TGI for the following entry. COc1ccccc1Cc1ccc(C2C=CC3(CC(=O)C=C3C)C(=O)C2)o1 (configuration not stated)
> 100 µM

Identify the reported TGI for the following entry. "O=C(CN(C(=O)OC12CC3CC(CC(C3)C1)C2)C(=O)OC12CC3CC(CC(C3)C1)C2)Oc1ccc([N+](=O)[O-])cc1"
> 100 µM

###

# Test system: SNB-75 CNS
# EXPERIMENT_SUMMARY: NCI tumour cell line growth inhibition, 48 h
TEST_READOUT: TGI (µM)
API: value field is a number in µM; no unit string.

A selection of reference data follows.
MOLECULE: COc1cc(CSc2ccc(O)cc2)cc(OC)c1OC
UNIT_ABBREVIATION: µM
TGI: 86.2
//
MOLECULE: CN(C)CCN1C(=O)c2cccc3cc([N+](=O)[O-])cc(c23)C1=O
UNIT_ABBREVIATION: µM
TGI: 1.05
//
MOLECULE: COc1ccc([N+](=O)[O-])c2c(NCCCN(C)C)ccnc12
UNIT_ABBREVIATION: µM
TGI: 15.8

Identify the reported TGI for the following entry. "CC1CCN(Cc2ccc(NC(=O)c3cc4ccc5cccnc5c4[nH]3)cc2)CC1"
27.8

Identify the reported TGI for the following entry. COC(=O)C1Cc2ccc(O)c(O)c2CN1 (stereo not given)
34.4

Identify the reported TGI for the following entry. CN(CCCCCl)P(=O)(OCCS(=O)(=O)CC(NC(=O)CCC(N)C(=O)O)C(=O)NC(C(=O)O)c1ccccc1)OCC1OC(n2ccc(N)nc2=O)C(O)C1O (stereo not given)
74.6

Identify the reported TGI for the following entry. "C=C(CN1CCN(c2ccc(C(F)(F)F)cc2)CC1)c1ccc(C(=O)Nc2ccccc2N)cc1"
51.8

Identify the reported TGI for the following entry. "COc1ccc2c(c1)c(-c1nc(-c3c[nH]c4ncccc34)cs1)cn2CCCN1CCCCC1"
3.09

Identify the reported TGI for the following entry. "CCC[CH2][Sn]([CH2]CCC)([O]c1cccc2cccnc12)[O]c1cccc2cccnc12"
0.563

Identify the reported TGI for the following entry. CC(=O)OC1CCC2(C)C(CCC3C2CC(=O)C2(C)C3CC(N3CC3)C2C(C)=O)C1 (stereo not given)
42.6
